Entries and their IC50 values follow.
tested-system: HIV-1 RT double mutant K103N/Y181C (Human immunodeficiency virus type 1 group M subtype B, UniProt P03366, K702N/Y780C)
Construct: HIV-1 wild type reverse transcriptase as well as the clinically significant double mutant K103N/Y181C
assay-remarks: biochemical

Illustrative cases are given below, each with its answer.
>>> test_value("CCN1c2ncc(CCOc3ccc(C(=O)Nc4ccc(C(=O)O)cc4)cc3C)cc2C(=O)N(C)c2cccnc21 [Entry 3001]")
"< 50 nM"
>>> test_value("CCN1c2ncc(CCOc3ccc(C(=O)NNCC(=O)O)cc3C)cc2C(=O)N(C)c2cccnc21 [Entry 4015]")
"> 100 nM"
>>> test_value("CCN1c2ncc(CCOc3ccc(-c4cc(C(=O)O)on4)cc3C)cc2C(=O)N(C)c2cccnc21 [Entry 1041]")
"< 50 nM"
>>> test_value("CCN1c2ncc(CCOc3ccc(-c4cccc(C(=O)O)c4)cc3C)cc2C(=O)N(C)c2cccnc21 [Entry 1013]")
"< 50 nM"
>>> test_value("CCN1c2ncc(CCOc3ccc(S(=O)(=O)c4ccc(C(=O)O)cc4)cc3C)cc2C(=O)N(C)c2cccnc21 [Entry 3028]")
"< 50 nM"
>>> test_value("CCN1c2ncc(CCOc3ccc(N(Cc4ccc(C(=O)O)cc4)C(C)=O)cc3C)cc2C(=O)N(C)c2cccnc21 [Entry 4003]")
"> 100 nM"

Next compound, IC50 to be filled in.
Which IC50 reading was recorded for the compound CCN1c2ncc(CCOc3ccc(C(=O)NNC)cc3C)cc2C(=O)N(C)c2cccnc21 [Entry 4016] ?
< 50 nM

====

tested-system: HIV-1 RT double mutant K103N/Y181C (Human immunodeficiency virus type 1 group M subtype B, UniProt P03366, K702N/Y780C)
Construct: HIV-1 wild type reverse transcriptase as well as the clinically significant double mutant K103N/Y181C
assay-remarks: biochemical
Procedure: Utilizing the Reverse Transcriptase (RT) Assay described below, compounds were tested for their ability to inhibit the RNA-dependent DNA polymerase activity of HIV-1 RT. Certain specific compounds described in the Examples and in Tables 1-4, were so tested. The results of this testing appear in Table 5 as ranges of IC50 (nM) and EC50 (nM). Reverse Transcriptase (RT) Assays
experimental-readout: IC50

Past entries and their recorded results:
>>> test_value("CCN1c2ncc(CCOc3ccc(C(=O)NCC4(C(=O)O)CCCC4)cc3C)cc2C(=O)N(C)c2cccnc21 [Entry 4018]")
"> 100 nM"
>>> test_value("CCN1c2ncc(CCOc3ccc(NC(=O)CCC(=O)O)cc3C)cc2C(=O)N(C)c2cccnc21 [Entry 4006]")
"50 to 100 nM"
>>> test_value("CCN1c2ncc(CCOc3ccc(C(=O)NCC(CC)(CC)C(=O)O)cc3C)cc2C(=O)N(C)c2cccnc21 [Entry 4014]")
"< 50 nM"
>>> test_value("CCN1c2ncc(CCOc3ccc(C(=O)NCc4cc[n+]([O-])cc4)cc3C)cc2C(=O)N(C)c2cccnc21 [Entry 3003]")
"50 to 100 nM"
>>> test_value("CCN1c2ncc(CCOc3ccc(C(=O)NCc4ccc(C(=O)O)cc4)cc3C)cc2C(=O)N(C)c2cccnc21 [Entry 3002]")
"< 50 nM"

Given the compound CCN1c2ncc(CCOc3ccc(C(=O)NC(C)(C)C(=O)O)cc3C)cc2C(=O)N(C)c2cccnc21 [Entry 4012] , what is its reported IC50?
50 to 100 nM

# iterate: CCN1c2ncc(CCOc3ccc(C(=O)Nc4cccc[n+]4[O-])cc3C)cc2C(=O)N(C)c2cccnc21 [Entry 3015]
< 50 nM

====

Documented pIC50 across a set of compounds
tested-system: HIV-1 RT double mutant K103N/Y181C (Human immunodeficiency virus type 1 group M subtype B, UniProt P03366, K702N/Y780C)
Construct: HIV-1 wild type reverse transcriptase as well as the clinically significant double mutant K103N/Y181C
assay-remarks: biochemical
pIC50: −log10 of the molar value.

>>> test_value("CCN1c2ncc(CCOc3ccc(S(=O)(=O)c4cccc(CC(=O)O)c4)cc3C)cc2C(=O)N(C)c2cccnc21")
"> 7.30"
>>> test_value("CCN1c2ncc(CCOc3ccc(C(=O)Nc4cc[n+]([O-])cc4)cc3C)cc2C(=O)N(C)c2cccnc21")
"> 7.30"
>>> test_value("CCN1c2ncc(CCOc3ccc(-c4ccc(N)c(C(=O)O)c4)cc3C)cc2C(=O)N(C)c2cccnc21")
"> 7.30"
>>> test_value("CCN1c2ncc(CCOc3ccc(-c4ccc(C(=O)O)o4)cc3C)cc2C(=O)N(C)c2cccnc21")
"< 7.00"
>>> test_value("CCN1c2ncc(CCOc3ccc(NC(=O)c4ccc(Cl)nc4)cc3C)cc2C(=O)N(C)c2cccnc21")
"> 7.30"

Quick one: pIC50 for CCN1c2ncc(CCOc3cccc(-c4ccccc4)c3)cc2C(=O)N(C)c2cccnc21 ?
< 7.00

Try the compound CCN1c2ncc(CCOc3ccc(-c4cnccc4C)cc3C)cc2C(=O)N(C)c2cccnc21
> 7.30

====

Reported EC50 is given for each of the following compounds.
Test system: HIV-1 double mutant K103N/Y181C
assay-remarks: microbe, parasite or virus in culture
Type: cell-based
measurement-conditions: double mutant K103N/Y181C; read-out: EC50 K103N/Y181C

>>> test_value("CCN1c2ncc(CCOc3ccc(-c4ccc(CC(=O)O)cc4F)cc3C)cc2C(=O)N(C)c2cccnc21 [Entry 1024]")
"10 to 50 nM"
>>> test_value("CCN1c2ncc(CCOc3ccc(-c4cccc(CC(=O)O)c4)cc3C)cc2C(=O)N(C)c2cccnc21 [Entry 1015]")
"< 10 nM"
>>> test_value("CCN1c2ncc(CCOc3ccc(-c4ccccc4)cc3)cc2C(=O)N(C)c2cccnc21 [Entry 1101]")
"> 50 nM"

So what does the record say about EC50 for CCN1c2ncc(CCOc3ccc(C(=O)Nc4cccc[n+]4[O-])cc3C)cc2C(=O)Nc2c(C)ccnc21 [Entry 3019] ?
< 10 nM

Please do the same for CCN1c2ncc(CCOc3ccc(-c4ccc(C(=O)O)cc4)c(C)c3)cc2C(=O)N(C)c2cccnc21 [Entry 1005] as well.
> 50 nM

Next entry: CCN1c2ncc(CCOc3ccc(-c4ccc(C)nc4)cc3C)cc2C(=O)N(C)c2cccnc21 [Entry 1072]
< 10 nM

Moving on to CCN1c2ncc(CCOc3ccc(-c4ccc(C(=O)O)cc4)cc3)cc2C(=O)N(C)c2cccnc21 [Entry 1001]
> 50 nM

Item: CCN1c2ncc(CCOc3ccc(-c4ccc(C(=O)O)cc4)cc3F)cc2C(=O)N(C)c2cccnc21 [Entry 1004]
> 50 nM

====

pIC50 reference
tested-system: HIV-1 wild type reverse transcriptase (Human immunodeficiency virus type 1 group M subtype B, UniProt P03366)
Construct: HIV-1 wild type reverse transcriptase
assay-remarks: biochemical
measurement-conditions: read-out: IC50 WT RT
pIC50: −log10 of the molar value.

These solved cases illustrate the format of a correct answer.
>>> test_value("CCN1c2ncc(CCOc3ccc(-c4cccnc4)cc3C)cc2C(=O)N(C)c2cccnc21")
"> 7.30"
>>> test_value("CCN1c2ncc(CCOc3ccc(-c4ccc(CCC(=O)O)o4)cc3C)cc2C(=O)N(C)c2cccnc21")
"> 7.30"

Given the entry CCN1c2ncc(CCOc3ccc(-c4ccc(CCC(=O)O)o4)cc3)cc2C(=O)N(C)c2cccnc21 , report its measured pIC50.
> 7.30

====

tested-system: HIV-1 wild type reverse transcriptase (Human immunodeficiency virus type 1 group M subtype B)
Construct: HIV-1 wild type reverse transcriptase
assay-remarks: biochemical
experimental-readout: IC50

Look at this compound and give its reported IC50. CCN1c2ncc(CCOc3ccc(C(=O)Nc4ccc(C(=O)O)cn4)cc3C)cc2C(=O)N(C)c2cccnc21 [Entry 3014]
< 50 nM

====

System: HIV-1 double mutant K103N/Y181C
assay-remarks: microbe, parasite or virus in culture
Assay type: cell-based
measurement-conditions: double mutant K103N/Y181C; read-out: EC50 K103N/Y181C
experimental-readout: EC50

>>> test_value("CCN1c2ncc(CCOc3ccc(-c4ccc(C(=O)O)cc4)c(Cl)c3)cc2C(=O)N(C)c2cccnc21 [Entry 1006]")
"> 50 nM"
>>> test_value("CCN1c2ncccc2NC(=O)c2cc(CCOc3ccc(-c4ccc(CC(=O)O)cc4)cc3C)cnc21 [Entry 1058]")
"10 to 50 nM"
>>> test_value("CCN1c2ncc(CCOc3ccc(-c4ccc(CC(=O)O)c(C)c4)cc3C)cc2C(=O)N(C)c2cccnc21 [Entry 1021]")
"10 to 50 nM"
>>> test_value("CCN1c2ncc(CCOc3ccc(-c4ccc(C(=O)O)cc4)cc3C)cc2C(=O)N(C)c2cccnc21 [Entry 1003]")
"< 10 nM"
>>> test_value("CCN1c2ncc(CCOc3ccc(-c4cccnc4)cc3C)cc2C(=O)N(C)c2cccnc21 [Entry 1067]")
"< 10 nM"
>>> test_value("CCN1c2ncc(CCOc3ccc(-c4cccc(CC(=O)O)c4)cc3)cc2C(=O)N(C)c2cccnc21 [Entry 1014]")
"10 to 50 nM"
>>> test_value("Cc1cc(-c2ccc(CC(=O)O)cc2)ccc1OCCc1cnc2c(c1)C(=O)N(C)c1cccnc1N2 [Entry 1059]")
"> 50 nM"
>>> test_value("CCN1c2ncc(CCOc3ccc(C(=O)Nc4ccc[n+]([O-])c4)cc3C)cc2C(=O)Nc2c(C)ccnc21 [Entry 3020]")
"< 10 nM"
>>> test_value("CCN1c2ncc(CCOc3ccc(-c4ccc(O)c(C(=O)O)c4)cc3C)cc2C(=O)N(C)c2cccnc21 [Entry 1033]")
"> 50 nM"
>>> test_value("CCN1c2ncc(CCOc3ccc(-c4ccc(CC(=O)O)cc4)cc3)cc2C(=O)N(C)c2cccnc21 [Entry 1007]")
"> 50 nM"

Could you share what EC50 was measured for CCN1c2ncc(CCOc3ccc(-c4ccc(CC(=O)O)cc4OC)cc3C)cc2C(=O)N(C)c2cccnc21 [Entry 1026] , tested on HIV-1 double mutant K103N/Y181C?
10 to 50 nM

Repeat for the following compound: CCN1c2ncc(CCOc3ccc(-c4cc(C(=O)O)ccc4C)cc3C)cc2C(=O)N(C)c2cccnc21 [Entry 1028]
10 to 50 nM

CCN1c2ncc(CCOc3ccc(-c4ccc(CC(=O)O)cc4)cc3C)cc2C(=O)N(C)c2cccnc21 [Entry 1008] ?
< 10 nM

Ok, now CCN1c2ncc(CCOc3ccc(C(=O)Nc4ccc(C(=O)O)cc4)cc3C)cc2C(=O)Nc2c(C)ccnc21 [Entry 3017]
> 50 nM

Record: CCN1c2ncccc2NC(=O)c2cc(CCOc3ccc(-c4ccc[n+]([O-])c4)cc3C)cnc21 [Entry 1100]
10 to 50 nM
